Tested on: DFO2036
test protocol: qHTS profiling for inhibitors of Plasmodium falciparum proliferation (AID 504749); note: nearly all actives have a fitted effect of over 60% in size
setup conditions: P. falciparum in erythrocytes, SYBR Green DNA, 72 h; series mostly up to 28.7 µM
Inconclusive results are not listed. Calls of active or inactive are those of the source. Calls come from the whole dose curve; as a rule, active = well fitted inhibition curve with a large enough effect; inconclusive = small, poorly fitted or top-dose-only effect; inactive = flat fitted curve, though single readings scatter.
Reply using exactly one outcome from 1.0 (active), 0.0 (inactive)

| compound | group label |
| --- | --- |
| CCN(CC)CCO[C@H]1CC[C@@]2(C)C(=CC[C@@H]3[C@H]2CC[C@]2(C)C(=O)CC[C@H]32)C1 | 0.0 |
| CO[C@H]1[C@@H](O)CC(OC2[C@@H](O)CC(OC3[C@@H](O)C[C@H](OC4CC[C@@]5(C)C(CCC6C5CC(O)[C@]5(C)[C@H](C7=CC(=O)OC7)CCC65O)C4)O[C@@H]3C)O[C@@H]2C)O[C@@H]1C (stereo not given in full) | 0.0 |
| Oc1cc[c]([Hg][Cl])cc1 | 1.0 |
| CCCCCCCCCC[N+](C)(C)CCCCCCCCCC | 1.0 |

Turning now to a further record.
Tell me the assay call for CCN1C[C@]2(COC)[C@H](O)C[C@H](OC)[C@]34C1C([C@H](OC)[C@H]23)[C@]1(OC(C)=O)C2[C@@H](OC(=O)c3ccccc3)C(O)(C[C@H]24)[C@@H](OC)[C@@H]1O please. 0.0

---

System: Hek293T
test protocol: Primary qHTS to identify gynecologic anti-cancer compounds using libraries of approved drugs and bioactive compounds (AID 1345084); note: nearly all actives have a fitted effect of over 55% in size; for activity change, negative = cytotoxicity: % is set by controls: 0 for no effect and ±100 for the full control effect
setup conditions: Gynecologic cancer cell panel viability, ATPlite luminescence, 48 h, control line for the selectivity index; series mostly up to 57.5 µM
Results filed as inconclusive are left out. Calls of active or inactive are those of the source. Calls follow the shape of the dose curve; as a rule, active = well fitted cell-killing curve with a large enough effect; inconclusive = small, poorly fitted or top-dose-only effect, or effect the other way; inactive = flat fitted curve, though single readings scatter. Where a SMILES comes first, the peptide text is derived from it. [ ]: non-standard residue; d: D form. Ala(indol-2-yl) = N[C@@H](Cc1cc2ccccc2[nH]1)C(=O)O; Aib = CC(C)(N)C(=O)O
activity change, negative = cytotoxicity values, listed per item

Examples with answers:
| molecule | activity change, negative = cytotoxicity |
| --- | --- |
| CC(C)(NC(=O)[C@@H](N)Cc1ccc(O)cc1)C(=O)N[C@@H](Cc1cc2ccccc2[nH]1)C(=O)N[C@@H](Cc1ccccc1)C(=O)O (H-Y[Aib][Ala(indol-2-yl)]F-OH) | -0.36% [at 11.6 µM] (inactive) |
| Cc1sc2c(c1C)C(c1ccc(Cl)cc1)=N[C@@H](CC(=O)Nc1ccc(O)cc1)c1nnc(C)n1-2 | -11.9% [at 11.6 µM] (inactive) |
| Nc1ncnc2c1ncn2[C@@H]1O[C@@H]2COP(O)(=S)O[C@H]2[C@H]1O (stereo partly specified) | 0.669% [at 11.6 µM] (inactive) |
| CN(CC[C@H](N)CC(=O)N[C@H]1C=C[C@@H](n2ccc(N)nc2=O)O[C@@H]1C(=O)O)C(=N)N | 1.23% [at 11.6 µM] (inactive) |

Requested field: activity change, negative = cytotoxicity. Item: C/C=C(\C)C(=O)OC1C2C3(C)CCC(OC4CC(OC)C(OC5OC(C)C(O)C(OC)C5O)C(C)O4)CC3CCC23OC32CCC(C(C)=O)C2(C)C1OC(=O)/C(C)=C/C (stereo unspecified) 2.72% [at 11.6 µM] (inactive)

Requested field: activity change, negative = cytotoxicity. Item: CO[C@H]1C[C@H](O[C@H]2CC[C@@]3(C)C(=CCC4C3CC[C@]3(C)[C@@H](C5=CC(=O)OC5)CC[C@]43O)C2)O[C@@H](C)[C@@H]1O[C@@H]1O[C@H](CO[C@@H]2O[C@H](CO)[C@@H](O)[C@H](O)[C@H]2O)[C@@H](O)[C@H](O)[C@H]1O (stereo partly specified) -20.2% [at 11.6 µM] (inactive)

---

test protocol: qHTS for Inhibitors of the Functional Ribonucleoprotein Complex (vRNP) of Lassa (LASV) Arenavirus: Viability assay - alamar blue signal for LASV Primary Screen (AID 1347083); note: nearly all actives have a fitted effect of over 80% in size
setup conditions: cell viability, alamar blue fluorescence (LASV minigenome counter-screen); series mostly up to 57.5 µM
Results filed as inconclusive are left out. Calls of active or inactive are those of the source. Calls follow the shape of the full dose curve; tested in HEK293 reporter line.
Reply using exactly one outcome from class 1 = active, class 0 = inactive

Worked set:
| molecule | group label |
| --- | --- |
| CC(C)NC(=O)NC(C)C | class 0 |
| CC(C)c1onc(-c2c(Cl)cccc2Cl)c1COc1ccc(C=Cc2cccc(C(=O)O)c2)c(Cl)c1 | class 0 |
| CNC1CCC(N(Cc2cccc(-c3ccncc3)c2)C(=O)c2sc3ccccc3c2Cl)CC1 (stereo unspecified) | class 1 |

Tell me the assay call for O=C1C=C(C2OC(CO)C(O)C2O)C(=O)N1 (stereo unspecified) please. class 0

Tell me the assay call for C[C@@H](Oc1ccc2[nH]nc(C=Cc3cnn(CCO)c3)c2c1)c1c(Cl)cncc1Cl please. class 1

Tell me the assay call for C=CC1CN2CCC1CC2c1[nH]c2ccccc2c1CCO (stereo unspecified) please. class 0

Tell me the assay call for COc1ccc2[nH]c3c(c2c1)CCn1c-3nc2ccccc2c1=O please. class 0

Tell me the assay call for COc1ccc2c(=O)c(-c3ccccc3)c(C)oc2c1 please. class 0

Tell me the assay call for CCCCCOC(=O)CCC please. class 0

Tell me the assay call for O=C1CCCCCCCCCCCCCC1 please. class 0

Tell me the assay call for Cn1c2ccccc2c2c3c(c4c5ccccc5n(CCC#N)c4c21)CNC3=O please. class 1

Tell me the assay call for C=C(CO)CC1CC(O)[C@]2(C)OC3CC4OC5C[C@]6(C)O[C@]7(C)CCC8OC9C[C@]%10(C)OC%11C(C)=CC(=O)OC%11CC%10OC9C[C@@H](C)C8OC7CC6O[C@]5(C)C/C=C\C4OC3CC2O1 (stereo partly specified) please. class 0

Tell me the assay call for Cc1nc(C)c(C)nc1C please. class 0

Tell me the assay call for Nc1ccc(-c2nc3ccc(-c4nc5ccc(N)cc5[nH]4)cc3[nH]2)cc1 please. class 0

Tell me the assay call for CCCN(CCc1ccccc1)C1CCc2c(O)cccc2C1 (stereo unspecified) please. class 0

---

Test system: SKOV3
test protocol: Primary qHTS to identify gynecologic anti-cancer compounds using libraries of approved drugs and bioactive compounds (AID 1345084); note: nearly all actives have a fitted effect of over 55% in size
setup conditions: Gynecologic cancer cell panel viability, ATPlite luminescence, 48 h; series mostly up to 57.5 µM
Results filed as inconclusive are left out. Calls of active or inactive are those of the source. Calls follow the shape of the dose curve; as a rule, active = well fitted cell-killing curve with a large enough effect; inconclusive = small, poorly fitted or top-dose-only effect, or effect the other way; inactive = flat fitted curve, though single readings scatter.
Reply using exactly one outcome from T (active), F (inactive)

Tell me the assay call for COc1ccsc1CNCC[C@@]1(c2ccccn2)CCOC2(CCCC2)C1 please. F

Tell me the assay call for CCC(C)(O)C1(C(=O)O)COC(=O)C1 (stereo not drawn) please. F

Tell me the assay call for COC(=O)[C@@]1(C)C(=O)C=C[C@]2(C)c3c(O)cc(C(C)C)cc3[C@H](O)[C@@H](OC(C)=O)C12 (stereo partly drawn) please. F

Tell me the assay call for CC1CCCC(=O)CCC/C=C/c2cc(O)cc(O)c2C(=O)O1 (stereo not drawn) please. F

Tell me the assay call for CC(C)(O)/C=C/C(=O)[C@](C)(O)[C@H]1[C@H](O)C[C@@]2(C)[C@@H]3CC=C4[C@@H](C[C@H](O)C(=O)C4(C)C)[C@]3(C)C(=O)C[C@]12C please. T

Tell me the assay call for COc1cc(N2CCN(C)CC2)ccc1N please. F

Tell me the assay call for C[C@]12CCC(=O)C=C1CC[C@@H]1[C@@H]2[C@@H](O)C[C@]2(C)C(=O)CC[C@@H]12 please. F

Tell me the assay call for C[C@@H]1O[C@@H](O[C@H]2CC[C@@]3(C)C(CC[C@@H]4C3CC[C@]3(C)[C@@H](C5=CC(=O)OC5)CC[C@]43O)C2)[C@H](O[C@@H]2O[C@H](CO)[C@@H](O)[C@H](O)[C@H]2O)[C@H](O)[C@H]1O (stereo partly drawn) please. T

---

test protocol: qHTS for Inhibitors of the Functional Ribonucleoprotein Complex (vRNP) of Lassa (LASV) Arenavirus: Viability assay - alamar blue signal for LASV Primary Screen (AID 1347083); note: nearly all actives have a fitted effect of over 80% in size
setup conditions: cell viability, alamar blue fluorescence (LASV minigenome counter-screen); series mostly up to 57.5 µM
Results filed as inconclusive are left out. Active and inactive are the calls of the source. The call rests on the fitted dose curve; tested in HEK293 reporter line.
Reply using exactly one outcome from active, inactive

Worked set:
| molecule | group label |
| --- | --- |
| CC[C@H](NC(=O)c1c(C)c(-c2ccccc2)nc2ccccc12)c1ccccc1 | inactive |
| Cc1cc(C(=O)NOCCO)c(Nc2ccc(I)cc2F)n(C)c1=O | active |
| CC(=O)N1CCN(c2ccc(OCc3nn(C)c(C)c3-c3cccc4c(CCCOc5cccc6ccccc56)c(C(=O)O)n(Cc5cccnc5)c34)cc2)CC1 | inactive |
| CCCC/C=C/C=C\C=O | inactive |
| C#C[C@]1(O)CC[C@@H]2[C@@H]3CCc4cc(O)ccc4[C@H]3CC[C@@]21C | active |
| O=Cc1cc2ccccc2o1 | inactive |
| O=CN(O)CCCP(=O)(O)O | inactive |
| NC(N)=N[C@@H](CCC(=O)O)C(=O)O | inactive |

Tell me the assay call for C[C@@H]1C[C@@H]2OC(=O)[C@]3(C)[C@H]2[C@@H](OC3(C)O)[C@]2(C)C(=O)C=C[C@H]12 (stereo partly specified) please. inactive

Tell me the assay call for COc1ccc([C@@H](OC)[C@@]2(Cc3ccc(O)cc3)N=C(N)N(C)C2=O)cc1 please. inactive

Tell me the assay call for O=C1c2c(O)cc(O)cc2OC(c2ccc(O)c(O)c2)C1O (stereo unspecified) please. inactive
